tested on: Leishmania amazonensis; assay: Antileishmanial activity against Leishmania amazonensis MHOM/BR/76/LTB-012 promastigotes at 100 uM after 72 hrs by alamar blue assay; type: functional; details: MHOM/BR/76/LTB-012, 72 h, read-out: GI
# cutoff 20% applies to inhibition of growth at 100 µM; >= gives TRUE, < gives FALSE

Quick check, inhibition of growth at 100 µM >= 20%? COC(=O)NC1CCc2cc(OC)c(OC)c(OC)c2-c2ccc(OC)c(=O)cc21 (stereo unspecified) [COLCHININE]
FALSE

Quick check, inhibition of growth at 100 µM >= 20%? CC[C@@]12CCCN3CC[C@]4(c5cccc(OC)c5N(C(C)=O)[C@@H]4CC1)[C@H]32 [ASPIDOSPERMINE]
TRUE

Quick check, inhibition of growth at 100 µM >= 20%? `COc1ccc2c3c(n(CCCN(C)C)c2c1)C(C)=NCC3`
TRUE

* * *

molecular target: Trypanothione reductase (Trypanosoma cruzi) (UniProt P28593); assay: Inhibition of Trypanosoma cruzi recombinant trypanothione reductase at 85 uM
Sequence (P28593 whole entry, looked up): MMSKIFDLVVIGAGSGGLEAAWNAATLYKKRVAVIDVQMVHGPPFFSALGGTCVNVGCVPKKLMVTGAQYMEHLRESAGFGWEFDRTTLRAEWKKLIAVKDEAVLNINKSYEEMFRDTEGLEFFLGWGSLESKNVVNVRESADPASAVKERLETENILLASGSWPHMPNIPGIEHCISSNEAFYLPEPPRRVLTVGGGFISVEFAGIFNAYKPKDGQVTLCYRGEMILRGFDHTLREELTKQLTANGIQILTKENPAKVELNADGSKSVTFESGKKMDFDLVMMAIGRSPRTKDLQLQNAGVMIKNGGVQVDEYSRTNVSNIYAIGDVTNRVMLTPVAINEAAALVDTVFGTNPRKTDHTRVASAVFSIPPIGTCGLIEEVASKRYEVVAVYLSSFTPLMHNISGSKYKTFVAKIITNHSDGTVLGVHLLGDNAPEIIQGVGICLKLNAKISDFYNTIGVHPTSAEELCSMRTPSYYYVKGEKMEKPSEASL
measure_name: inhibition (%)
Give bare numbers, in %.

molecule: CN(C)CCCn1c2ccccc2c2ccncc21
measure_name: inhibition
recorded_value: 20
//
molecule: COc1ccc2c(c1)[nH]c1c(C)nccc12
measure_name: inhibition
recorded_value: 11
//
molecule: CN(C)CCc1cn(C)c2ccc(O)cc12
measure_name: inhibition
recorded_value: 9
//
molecule: O=c1[nH]c2c(c(=O)[nH]1)CNc1ccccc1S2 [PYRIMIDOBENZOTHIAZEPINE]
measure_name: inhibition
recorded_value: 10
//
molecule: Cc1nccc2c1[nH]c1ccccc12
measure_name: inhibition
recorded_value: 10

Report inhibition for each item below.
1. CC[C@@]12CCCN3CC[C@]4(c5cccc(OC)c5N(C(C)=O)[C@@H]4CC1)[C@H]32
2. CC[C@H]1[C@@H]2C[C@H]3[C@@H]4N(C)c5ccccc5[C@]45C[C@@H]([C@@H]2[C@H]5O)N3[C@@H]1O
3. O=c1cc(-c2ccc(O)cc2)oc2cc(O)cc(O)c12
4. C[C@H]1[C@H]2CC[C@H]3[C@@H]4CC=C5C[C@@H](N(C)C)CC[C@]5(C)[C@H]4CC[C@]23CN1C
5. O=C(/C=C/C=C/c1ccc2c(c1)OCO2)N1CCCCC1

[43, 12, 13, 25, 11]

Report inhibition for each item below.
1. C=CC1CN2CCC1CC2C(O)c1ccnc2ccccc12 (configuration not stated)
2. COc1ccc2c3ccnc(C)c3n(CCCN(C)C)c2c1

1: 18; 2: 13

* * *

molecular target: UniProtKB P39040; experiment: Inhibition of Crithidia fasciculata free trypanothione reductase
measure_name: pKi
Give bare numbers, as −log10 of the molar value.

Memo: `O=C(CCc1ccc(O)c(O)c1)NCCCNCCCCNCCCNC(=O)CCc1ccc(O)c(O)c1` , reported pKi: 5.74

* * *

biological target: Trypanothione reductase (Trypanosoma cruzi, UniProt P28593); test: Inhibition of Trypanosoma cruzi recombinant trypanothione reductase
Labelling field: enter Condition met if recorded Ki is less than 8 µM. Enter Condition not met if it equals or exceeds that cut-off.

Answered cases to consult:
compound: O=C1CC[C@]23/C=C/C(=O)NCCCCNCCCNC(=O)/C=C\c4ccc(c2c4)O[C@@H]3C1
class_assignment: Condition not met

compound: COc1cc(CC2NCCc3c2[nH]c2ccccc32)ccc1O (stereo not given)
class_assignment: Condition met

compound: COc1ccc2c3c(n(CCCN(C)C)c2c1)C(C)=NCC3
class_assignment: Condition not met

compound: CN(C)CCCn1c2c(c(=O)n(CCCN(C)C)c1=O)Nc1ccccc1S2
class_assignment: Condition not met

Please determine if `COc1ccc2cc1Oc1ccc(cc1)C[C@H]1c3c(cc4c(c3Oc3cc5c(cc3OC)CCN(C)[C@@H]5C2)OCO4)CCN1C` is below 8 µM in terms of Ki.
Condition met

* * *

biological target: Trypanothione reductase (Crithidia fasciculata, UniProt P39040); assay: Inhibition of Crithidia fasciculata trypanothione reductase-substrate complex
Sequence (P39040 whole entry): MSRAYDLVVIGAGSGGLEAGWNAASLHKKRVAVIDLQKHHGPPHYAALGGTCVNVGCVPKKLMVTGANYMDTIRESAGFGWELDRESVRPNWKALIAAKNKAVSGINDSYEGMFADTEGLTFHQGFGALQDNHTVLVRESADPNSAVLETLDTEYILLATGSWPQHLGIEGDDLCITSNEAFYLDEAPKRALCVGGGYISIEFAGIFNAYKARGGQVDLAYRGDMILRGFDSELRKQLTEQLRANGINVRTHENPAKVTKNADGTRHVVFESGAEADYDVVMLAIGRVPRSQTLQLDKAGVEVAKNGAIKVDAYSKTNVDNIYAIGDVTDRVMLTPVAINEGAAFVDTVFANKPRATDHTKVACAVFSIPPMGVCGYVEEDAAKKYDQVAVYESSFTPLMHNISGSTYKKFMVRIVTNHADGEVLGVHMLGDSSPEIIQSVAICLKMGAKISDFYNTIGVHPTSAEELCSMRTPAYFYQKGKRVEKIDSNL
measure_name: pKi
Give bare numbers, as −log10 of the molar value.

Memo: `O=C(CCc1ccc(O)c(O)c1)NCCCNCCCCNCCCNC(=O)CCc1ccc(O)c(O)c1` , reported pKi: 4.89

* * *

biological target: Trypanothione reductase (Trypanosoma cruzi) (UniProt P28593); experiment: Inhibition of Trypanosoma cruzi recombinant trypanothione reductase at 85 uM
# cutoff 10% applies to inhibition; >= gives rule met, < gives rule not met

Answered cases to consult:
compound: CN(C)CCCn1c2c(c(=O)n(CCCN(C)C)c1=O)Nc1ccccc1S2
system: Trypanothione reductase (Trypanosoma cruzi) (UniProt P28593)
class_assignment: rule met
//
compound: CN(C)Cc1cn(C)c2ccccc12
system: Trypanothione reductase (Trypanosoma cruzi) (UniProt P28593)
class_assignment: rule not met
//
compound: COc1ccc2c3c([nH]c2c1)C(C)=NCC3
system: Trypanothione reductase (Trypanosoma cruzi) (UniProt P28593)
class_assignment: rule met

Quick check, inhibition >= 10%? COC(=O)NC1CCc2cc(OC)c(OC)c(OC)c2-c2ccc(OC)c(=O)cc21 (stereo unspecified)
rule not met

Quick check, inhibition >= 10%? `Cc1nccc2c3ccccc3n(CCCN(C)C)c12`
rule met

Quick check, inhibition >= 10%? `COc1ccc2c3c(n(CCCN(C)C)c2c1)C(C)=NCC3`
rule met

Quick check, inhibition >= 10%? `C[C@@H]1CN(CCCn2c3ccccc3c3ccccc32)C[C@H](C)N1`
rule not met

Quick check, inhibition >= 10%? `O=c1[nH]c2c(c(=O)[nH]1)Nc1ccccc1S2`
rule met

Quick check, inhibition >= 10%? `COc1ccc(-c2cc(=O)c3c(O)cc(OC)cc3o2)cc1`
rule met

Quick check, inhibition >= 10%? CC1=CC2c3cccc4[nH]cc(c34)C[C@H]2N(C)C1 (stereo partly specified)
rule met

* * *

molecular target: Trypanothione reductase (Trypanosoma cruzi, UniProt P28593); assay: Inhibition of Trypanosoma cruzi recombinant trypanothione reductase
measure_name: pIC50
Give bare numbers, as −log10 of the molar value.

Report pIC50 for each item below.
1. CN(C)CCCN1c2ccccc2Sc2ccc(Cl)cc21
2. CC[C@@]12CCCN3CC[C@]4(c5cccc(OC)c5N(C(C)=O)[C@@H]4CC1)[C@H]32

5.24
4.04

* * *

system: Leishmania amazonensis; experiment: Antileishmanial activity against Leishmania amazonensis MHOM/BR/76/LTB-012 promastigotes at 100 uM after 72 hrs by alamar blue assay; type: functional; conditions: MHOM/BR/76/LTB-012, 72 h, read-out: GI
# cutoff 50% applies to inhibition of growth at 100 µM; >= gives 1.0, < gives 0.0

compound: O=c1[nH]c2c(c(=O)[nH]1)Nc1ccccc1S2
class_assignment: 0.0
--
compound: N=C(N)c1ccc(OCCCCCOc2ccc(C(=N)N)cc2)cc1
class_assignment: 1.0

Quick check, inhibition of growth at 100 µM >= 50%? O=c1[nH]c2c(c(=O)[nH]1)CNc1ccccc1S2 [PYRIMIDOBENZOTHIAZEPINE]
0.0

Quick check, inhibition of growth at 100 µM >= 50%? `CN(C)CCCn1c2c(c(=O)n(CCCN(C)C)c1=O)Nc1ccccc1S2`
0.0

* * *

Record form. Attribute: inhibition of growth at 100 µM. Fill in for each entry.
test system: Leishmania amazonensis; test: Antileishmanial activity against Leishmania amazonensis MHOM/BR/76/LTB-012 promastigotes at 100 uM after 72 hrs by alamar blue assay; format: functional; settings: MHOM/BR/76/LTB-012, 72 h, read-out: GI
One number for each entry, in %.

Solved entries:
compound: C=CC1CN2CCC1CC2C(O)c1ccnc2ccccc12 (centres undefined)
inhibition of growth at 100 µM / %: 51
//
compound: CC[C@H]1[C@@H]2C[C@H]3[C@@H]4N(C)c5ccccc5[C@]45C[C@@H]([C@@H]2[C@H]5O)N3[C@@H]1O
inhibition of growth at 100 µM / %: 5
//
compound: C[C@H]1[C@H]2CC[C@H]3[C@@H]4CC=C5C[C@@H](N(C)C)CC[C@]5(C)[C@H]4CC[C@]23CN1C
inhibition of growth at 100 µM / %: 97

# evaluate next
Memo: CC1=CC2c3cccc4[nH]cc(c34)C[C@H]2N(C)C1 (some centres undefined) , reported inhibition of growth at 100 µM: 70
